Source listed as patent US20080160035A1.

Assay target: T1, dimeric hIL-4R-hFc (human, UniProt P24394 26-232)
T1 construct: also called hIL-4R-Fc; not shown: human Fc (hFc)
T1 sequence: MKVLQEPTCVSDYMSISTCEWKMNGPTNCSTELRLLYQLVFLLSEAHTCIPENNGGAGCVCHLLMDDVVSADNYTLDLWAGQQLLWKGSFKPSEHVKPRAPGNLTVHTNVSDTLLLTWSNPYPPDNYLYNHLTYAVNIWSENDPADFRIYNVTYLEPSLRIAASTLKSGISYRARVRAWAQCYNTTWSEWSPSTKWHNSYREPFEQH
Assay overview: SPR (BIAcore 2000); antibody captured, dimeric hIL-4R-hFc injected
Some binders, each annotated with its measured Kd.

# count of solved cases: 2
binder="VAK11D4-1 (antibody, V domains shown, Apparently tested with mouse constant region (anti-mouse IgG capture/detection)) VH: QVRLVESGGGVVQPGRSLRLSCVASGFTFRSYGMHWVRQAPGRGLEWVAVISYDGSQTFYVDSVKVRFTISRDNSNNTLYLEMNSLRVDDTAVYFCVKEGRSGSWFDPWGQGTLVAVSS VL: DIHMTQSPSSLSASVGDRVTITCRASQAINNYLAWFQQKPGRTPKSLIFATSSLQSGVPSRFSGSGSGTDFTLTISSLQPEDFATYYCQQYNSHPWTFGQGTKVEIK" parameter=Kd experimental_result="6 pM"
binder="VAK7G8-5 (antibody, V domains shown, Apparently tested with mouse constant region (anti-mouse IgG capture/detection)) VH: QVRLVESGGGVVQPGGSLRLSCTASGFIFRSYGMHWVRQAPGRGLEWVAVISYDGSKTFYVDSVKVRFTISRDNSKNTLYLEMNSLRVDDTAVYFCVKEGRSGSWFDPWGQGTLVAVSS VL: DIHMTQSPSSLSASVGDRVTITCRASQAINNFLAWFQQKPGKTPKSLIFATSSLQSGVPSRFSGSGSGTDFTLTISSLQPEDFATYYCQQYNSHPWTFGQGTKVEIR" parameter=Kd experimental_result="9 pM"

For the binder shown here, VAB 15C8-17 (antibody, V domains shown, Apparently tested with mouse constant region (anti-mouse IgG capture/detection)) VH: QVQLVESGGGLVQPGGSLRLSCAVSGFTISDHYMSWIRQAPGKGLEWISYISSSGSKIYYADSVKGRFTISRDNAKNSLFLQMNSLRAEDTAVYYCARTRQLVGDYWGQGTLVTVSS VL: DIQLTQSPSFLSASVGDRVTITCWASQGISSYLAWYQQKPGKAPKLLIFAASTLQSGVPSRFSGSGSGTEFTLTISSLQPEDFATYYCQQLNSYPLTFGGGTKVEIR , give the reported Kd.
45 pM
